assayed_system: human 5-hydroxytryptamine2C (h5HT2C) receptor (Homo sapiens)
Construct: expressed in transfected cells; host or cells: CHO (Chinese Hamster Ovary) cells; membrane preparation
assay_remarks: 5HT2C receptor binding assay ([125I] DOI displacement)
Threshold 0.2 µM. Ki below it: class 1. Ki at it or above: class 0.

query: # strict comparison: is reported Ki < 0.2 µM? input = C=CCN1CCCN(c2ccc3c4c(cccc24)C(=O)N3CC2CCC2)CC1 [Example 22]
result: class 0

query: Does COc1cc(CC(C)N)c(OC)cc1I (centres unmarked) [DOI, reference compound] have Ki strictly under 0.2 µM?
result: class 1

query: Does the reported Ki of O=C1c2cccc3c(N4CCCN(CC5CCC5)CC4)ccc(c23)N1CC1CCC1 [Example 32] stay below 0.2 µM?
result: class 0

query: Input CC(C)CN1CCCN(c2ccc3c4c(cccc24)C(=O)N3CC2CCC2)CC1 [Example 24] ; condition: Ki strictly below 0.2 µM. Does it hold?
result: class 0

We next turn to a different compound, shown below.
query: Dear colleague, could you confirm whether Ki of CCCCCN1CCCN(c2ccc3c4c(cccc24)C(=O)N3CCCC(F)(F)F)CC1 [Example 80] falls below 0.2 µM? Thanks.
result: class 1

---

assayed_system: human 5-hydroxytryptamine2C (h5HT2C) receptor (Homo sapiens)
Construct: expressed in transfected cells; host or cells: CHO (Chinese Hamster Ovary) cells; membrane preparation
assay_remarks: 5HT2C receptor binding assay ([125I] DOI displacement)
measurement_context: membranes of CHO cells expressing h5HT2C; radioligand [125I] DOI; room temperature, 60 min; read-out: 5HT2C Binding Affinity Ki
# key: entry, value: pKi
Formally, pKi is defined as -log10 of the concentration c, with c in mol/L.

query: So what's the measured pKi for this one? COc1ccc(CN2C(=O)c3cccc4c(N5CCCN(CC(C)(C)C)CC5)ccc2c34)cc1
result: 6.88

query: Need pKi of O=C1c2cccc3c(N4CCCN(CCc5ccccc5)CC4)ccc(c23)N1CC1CCC1 , thanks.
result: 6.75

Further cases:
query: Need pKi, item COc1ccc(CN2C(=O)c3cccc4c(N5CCCN(CCCc6ccccc6)CC5)ccc2c34)cc1
result: 6.78

query: For the molecule COc1ccc(CN2C(=O)c3cccc4c(N5CCCN(CC6CCC6)CC5)ccc2c34)cc1 , what pKi is on record?
result: 6.59

---

Listing of entries alongside the reported Ki.
assayed_system: human 5-hydroxytryptamine2C (h5HT2C) receptor (Homo sapiens, UniProt P28335)
Construct: expressed in transfected cells; host or cells: CHO (Chinese Hamster Ovary) cells; membrane preparation
Sequence (P28335 33-458): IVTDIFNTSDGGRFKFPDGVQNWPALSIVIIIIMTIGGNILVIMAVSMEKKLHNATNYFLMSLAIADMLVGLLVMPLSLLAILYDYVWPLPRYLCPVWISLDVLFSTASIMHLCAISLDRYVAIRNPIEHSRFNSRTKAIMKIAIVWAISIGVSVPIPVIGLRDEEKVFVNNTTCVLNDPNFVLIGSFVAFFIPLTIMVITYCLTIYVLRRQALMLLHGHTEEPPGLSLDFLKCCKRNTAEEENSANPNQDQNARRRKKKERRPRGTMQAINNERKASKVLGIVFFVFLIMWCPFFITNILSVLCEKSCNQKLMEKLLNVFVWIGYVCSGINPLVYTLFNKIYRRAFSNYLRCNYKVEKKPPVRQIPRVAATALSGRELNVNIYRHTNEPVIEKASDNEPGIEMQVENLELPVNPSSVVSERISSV
assay_remarks: 5HT2C receptor binding assay ([125I] DOI displacement)
measurement_context: membranes of CHO cells expressing h5HT2C; radioligand [125I] DOI; room temperature, 60 min; read-out: 5HT2C Binding Affinity Ki
Response body: numeric value in nM, unit text excluded.

query: Report Ki for CCCCCN1CCCN(c2ccc3c4c(cccc24)C(=O)N3CC)CC1 please.
result: 247

New cases:
query: What value of Ki has been reported for the following compound? CCCN1CCCN(c2ccc3c4c(cccc24)C(=O)N3Cc2ccc(OC)cc2)CC1
result: 243

query: Any idea what Ki was measured for O=C1c2cccc3c(N4CCCN(CCc5ccccc5)CC4)ccc(c23)N1CCCC(F)(F)F ?
result: 112

Origin of values: patent US6667303B1
